- Experiment: Lipophilicity, log D of the compound at pH 7.4 by shake flask method
- Assay type: physicochemical
- Condition Notes: buffer, read-out: logD
Note that class boundaries on logD are low (below 0.5), medium (0.5 to below 1), high (1 or more)

Category of CN(C)[C@H]1CC[C@H](Oc2ncnc3[nH]cc(C4CCOCC4)c23)CC1 : high

====

- Experiment: Lipophilicity, log D of the compound at pH 7.4 by shake flask method
- Assay type: physicochemical
- Condition Notes: buffer, read-out: logD
# strict inequality: logD < 0.5 yields Met, everything else yields Not met

Examples with answers:
INSERT INTO measurements (compound, assigned_label) VALUES
  ('N#Cc1cnc2[nH]cc(C3CCOCC3)c2c1N[C@H]1CC[C@H](N2CCOCC2)CC1', 'Not met'),
  ('c1cc(N[C@H]2CC[C@H](N3CCOCC3)CC2)c2c(C3CCOCC3)c[nH]c2n1', 'Not met');

Strictly below 0.5 in logD? Cc1cc2c(N[C@H]3CC[C@H](N(C)C)CC3)ncnc2[nH]1 Met

Please determine if Cc1cc2c(N[C@H]3CC[C@H](N(C)C)CC3)ncnc2s1 is below 0.5 in terms of logD. Not met

Problem: For the compound Cc1csc2ncnc(N[C@H]3CC[C@H](N(C)C)CC3)c12 , is logD under 0.5? Met

Is logD of Cc1sc2ncnc(N[C@H]3CC[C@H](N(C)C)CC3)c2c1C strictly below 0.5? Not met

Regarding CN(C)[C@H]1CC[C@H](Nc2ncnc3[nH]cc(C4CC4)c23)CC1 , kindly confirm whether its logD is beneath 0.5. Not met

Is it true that logD reported for CN(C)[C@H]1CC[C@H](Nc2ncnc3[nH]cc(C4CCCC4)c23)CC1 is less than 0.5? Not met

# TODO verify logD < 0.5 strictly for this compound: CN(C)[C@H]1CC[C@H](Nc2ncnc3[nH]cc(C(F)(F)F)c23)CC1 Not met

Would you kindly verify if logD of Cc1[nH]c2ncnc(N[C@H]3CC[C@H](N(C)C)CC3)c2c1C is strictly less than 0.5? Not met

Below 0.5 on logD? Entry CN(C)[C@H]1CC[C@H](Nc2ncnc3[nH]cc(C4CCC4)c23)CC1 Not met

Determine if CN(C)[C@H]1CC[C@H](Nc2ncnc3[nH]ccc23)CC1 shows logD strictly lower than 0.5. Met

====

Please provide measured logD for the entries that follow.
- Experiment: Lipophilicity, log D of the compound at pH 7.4 by shake flask method
- Format: physicochemical
- Condition Notes: buffer, read-out: logD
Give bare numbers.

Example compounds with recorded logD:
INSERT INTO assay_data (compound, recorded_value) VALUES
  ('CN(C)[C@H]1CC[C@H](Nc2ncnc3[nH]c4c(c23)CCC4)CC1', 0.5),
  ('c1nc(S[C@H]2CC[C@H](N3CCOCC3)CC2)c2c(C3CCOCC3)c[nH]c2n1', 3),
  ('CN(C)[C@H]1CC[C@H](Nc2ncnc3sc4c(c23)CCC4)CC1', 1.2);

List reported logD for each of these compounds:
1. CN(C)[C@H]1CC[C@H](N(C)c2ncnc3[nH]cc(C4CCOCC4)c23)CC1
2. CN(C)[C@H]1CC[C@H](Nc2ncnc3[nH]cc(C4CCCOC4)c23)CC1 (stereo not given in full)
3. CN(C)[C@H]1CC[C@H](Nc2ncnc3[nH]cc(C4CCCO4)c23)CC1 (stereo in doubt; 18a)
4. CCc1c[nH]c2ncnc(N[C@H]3CC[C@H](N(C)C)CC3)c12
5. CN(C)[C@H]1CC[C@H](Nc2ncnc3sccc23)CC1

1: 0.6; 2: 0.3; 3: 0.4; 4: 0.6; 5: 0.1

Required: logD, one value per compound below.
1. CN(C)[C@H]1CC[C@H](Nc2ncnc3[nH]cc(C4CCOC4)c23)CC1 (stereo in doubt; 19a)
2. c1nc(O[C@H]2CC[C@H](N3CCOCC3)CC2)c2c(C3CCOCC3)c[nH]c2n1

0.1
2.4

Every entry's value here was drawn from ChEMBL document CHEMBL4024763.
